Where do these numbers come from? They come from patent US20060252807A1.

Here, each record is paired with measured IC50 data.
Molecular target: active p38 alpha enzyme (Upstate Biotechnology) (Homo sapiens, UniProt Q16539)
Construct: purchased Upstate Biotechnology
Sequence (Q16539 whole entry): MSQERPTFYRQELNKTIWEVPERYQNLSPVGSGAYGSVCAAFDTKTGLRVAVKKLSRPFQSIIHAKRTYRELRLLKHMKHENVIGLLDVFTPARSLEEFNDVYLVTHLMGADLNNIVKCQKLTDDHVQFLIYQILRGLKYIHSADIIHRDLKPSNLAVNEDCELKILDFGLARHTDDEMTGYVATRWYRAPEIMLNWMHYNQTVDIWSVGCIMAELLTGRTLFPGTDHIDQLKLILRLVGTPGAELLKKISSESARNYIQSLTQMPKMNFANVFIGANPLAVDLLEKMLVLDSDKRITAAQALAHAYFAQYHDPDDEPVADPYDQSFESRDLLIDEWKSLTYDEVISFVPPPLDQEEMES
Experiment: p38α biochemical assay (ATP turnover, luminescent detection, Cambrex PKlight)
Details: p38α biochemical assay, Table 1 Biological Activity

If you can, please state the reported IC50 value of CC(C)NC(=O)c1csc(-c2oc(CNC(=O)c3cccc(O)c3O)nc2-c2ccc(F)cc2)n1 .
≤ 1000 nM

Then this compound: CC(C)NC(=O)c1csc(-c2oc(CN3CCN(C(=O)C(Cc4ccc(O)cc4)NC(=O)OC(C)(C)C)CC3)nc2-c2ccc(F)cc2)n1 (stereo not shown)
≤ 1000 nM

Then this compound: CC(C)NC(=O)c1csc(-c2oc(CNC(=O)COc3ccccc3C=O)nc2-c2ccc(F)cc2)n1
> 1000 nM

Then this compound: CC(C)NC(=O)c1csc(-c2oc(CNC(=O)c3c(O)ccc4ccccc34)nc2-c2ccc(F)cc2)n1
> 1000 nM

Then this compound: COc1cc(C(=O)NCc2onc(-c3ccc(F)cc3)c2-c2nc(C(=O)NC(C)C)cs2)cc(OC)c1OC
> 1000 nM

Then this compound: Cc1cc(C(=O)NCc2nc(-c3ccc(F)cc3)c(-c3nc(C(=O)NC(C)C)cs3)o2)ccc1Br
> 1000 nM

Then this compound: O=C(NCc1cccnc1)c1csc(-c2c(-c3ccc(F)cc3)n[nH]c2C2CCN(C(=O)CO)CC2)n1
≤ 1000 nM

Then this compound: CC(C)NC(=O)c1csc(-c2c(-c3ccc(F)cc3)noc2CN2CCCCC2)n1
> 1000 nM

Then this compound: CC(C)NC(=O)c1csc(-c2oc(CNC(=O)c3cc(Cl)ccc3O)nc2-c2ccc(F)cc2)n1
> 1000 nM

Then this compound: COc1ccc(Cl)cc1C(=O)NCc1nc(-c2ccc(F)cc2)c(-c2nc(C(=O)NC(C)C)cs2)o1
> 1000 nM

Then this compound: COC(=O)c1ccc(C(=O)N2CCN(Cc3nc(-c4ccc(F)cc4)c(-c4nc(C(=O)NC(C)C)cs4)o3)CC2)cc1
> 1000 nM

Then this compound: CC(C)NC(=O)c1csc(-c2c(-c3ccc(F)cc3)noc2CNC(=O)c2cc(Br)ccc2Cl)n1
> 1000 nM

---

Biological target: active p38 alpha enzyme (Upstate Biotechnology) (Homo sapiens, UniProt Q16539)
Construct: purchased Upstate Biotechnology
Experiment: p38α biochemical assay (ATP turnover, luminescent detection, Cambrex PKlight)
Conditions: p38α biochemical assay, Table 1 Biological Activity
Here, each record is paired with measured IC50 data.

Here's what some known entries look like.
>>> endpoint_value("COc1cc(C(=O)NCc2nc(-c3ccc(F)cc3)c(-c3nc(C(=O)NC(C)C)cs3)o2)cc(OC)c1O [Example 266]")
"≤ 1000 nM"
>>> endpoint_value("Cc1onc(-c2ccc(Cl)cc2)c1-c1ccn(C(=O)NCc2ccco2)n1 [Example 11]")
"> 1000 nM"
>>> endpoint_value("COc1ccc(C(=O)NCc2onc(-c3ccc(F)cc3)c2-c2nc(C(=O)NC(C)C)cs2)c(OC)c1 [Example 700]")
"> 1000 nM"
>>> endpoint_value("COc1ccc(CNC(=O)c2csc(-c3sc(C)nc3-c3ccc(F)cc3)n2)cc1OC [Example 60]")
"> 1000 nM"
>>> endpoint_value("CC(=O)NCc1onc(-c2ccc(F)cc2)c1-c1nc(C(=O)NC(C)C)cs1 [Example 573]")
"> 1000 nM"

If you can, please state the reported IC50 value of CC(C)NC(=O)c1csc(-c2oc(CN3CCN(C(=O)c4ccc5ccccc5c4O)CC3)nc2-c2ccc(F)cc2)n1 [Example 482] .
> 1000 nM

Then this molecule: COc1ccc(O)c(C(=O)NCc2onc(-c3ccc(F)cc3)c2-c2nc(C(=O)NC(C)C)cs2)c1 [Example 662]
> 1000 nM

Then this molecule: CC(C)NC(=O)c1csc(-c2c(-c3ccc(F)cc3)noc2CNC(=O)C2CCc3ccccc3C2)n1 (stereo not drawn) [Example 679]
> 1000 nM

Then this molecule: CC1=NN(c2ccc(C(=O)NCc3onc(-c4ccc(F)cc4)c3-c3nc(C(=O)NC(C)C)cs3)cc2)C(=O)C1 [Example 776]
> 1000 nM

Then this molecule: Cc1onc(-c2ccc(Cl)cc2)c1-c1ccn(C(=O)CC(C)C)n1 [Example 20]
> 1000 nM

Then this molecule: CC(C)NC(=O)c1csc(-c2oc(CN3CCN(C(=O)c4ccc(F)cc4)CC3)nc2-c2ccc(F)cc2)n1 [Example 363]
> 1000 nM

Then this molecule: CC(C)NC(=O)c1csc(-c2c(-c3ccc(F)cc3)noc2CNC(=O)c2ccccc2O)n1 [Example 600]
> 1000 nM

Then this molecule: COCCNC(=O)c1csc(-c2sc(C)nc2-c2ccc(F)cc2)n1 [Example 53]
≤ 1000 nM

Then this molecule: CC(C)NC(=O)c1csc(-c2oc(CNC(=O)c3cc(O)c(O)c(O)c3)nc2-c2ccc(F)cc2)n1 [Example 190]
≤ 1000 nM

Then this molecule: CCOc1ccccc1C(=O)NCc1nc(-c2ccc(F)cc2)c(-c2nc(C(=O)NC(C)C)cs2)o1 [Example 179]
> 1000 nM
